target: Bcl-2-like protein 1 (Homo sapiens, UniProt Q07817); assay: Binding affinity to full length human Bcl-xl expressed in Escherichia coli BL21 (DE3) assessed as inhibition constant preincubated for 30 mins followed by 5-FAM-QEDIIIINIARHLAQVGDSMD-RSIPPG tracer addition and measured after 20 mins by fluorescence polarization assay
Sequence (Q07817 whole entry): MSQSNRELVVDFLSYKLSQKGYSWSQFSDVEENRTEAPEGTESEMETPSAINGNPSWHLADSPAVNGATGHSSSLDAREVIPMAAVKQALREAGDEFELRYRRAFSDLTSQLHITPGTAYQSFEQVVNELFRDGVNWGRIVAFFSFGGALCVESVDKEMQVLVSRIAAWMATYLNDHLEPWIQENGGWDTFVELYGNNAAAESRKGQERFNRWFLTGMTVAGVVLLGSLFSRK
pKi: −log10 of the molar value.
measurementName: pKi

Sample answers from the record:
O=S(=O)(NCCNC(=S)Nc1cc(C(F)(F)F)cc(C(F)(F)F)c1)c1cc(-c2ccccc2Oc2ccc(O)c(O)c2)cs1 6.00
O=C(NCCNS(=O)(=O)c1ccc(-c2ccccc2Oc2ccc(O)c(O)c2)s1)Nc1cc(Cl)cc(Cl)c1 5.77
CC(C)c1ccc(Oc2ccc(O)c(O)c2)c(-c2ccsc2S(=O)(=O)NCCNC(=S)Nc2cc(C(F)(F)F)cc(C(F)(F)F)c2)c1 5.31
O=C(NCCNS(=O)(=O)c1cc(-c2ccccc2Oc2ccc(O)c(O)c2)cs1)Nc1cc(Cl)cc(Cl)c1 5.77
O=C(NCCNS(=O)(=O)c1ccc(-c2ccccc2Oc2ccc(O)c(O)c2)s1)Nc1cc(C(F)(F)F)cc(C(F)(F)F)c1 5.82

[A] O=C(NCCNS(=O)(=O)c1cc(-c2ccccc2Oc2ccc(O)c(O)c2)cs1)Nc1cc(C(F)(F)F)cc(C(F)(F)F)c1
[B] O=S(=O)(NCCNC(=S)Nc1cc(C(F)(F)F)cc(C(F)(F)F)c1)c1ccc(-c2ccccc2Oc2ccc(O)c(O)c2)s1
Data request: Larger number for pKi: A , or B ? // respond with label for picked entry
Data returned: B
(B: 6.03, A: 5.77)
